# tgt: proton, potassium-adenosine triphosphatase (H+,K+-ATPase) (Sus scrofa, UniProt P19156)
# Construct: a gastric mucous membrane microsomal fraction was prepared from the stomach of swine
# Sequence (P19156 2-1034): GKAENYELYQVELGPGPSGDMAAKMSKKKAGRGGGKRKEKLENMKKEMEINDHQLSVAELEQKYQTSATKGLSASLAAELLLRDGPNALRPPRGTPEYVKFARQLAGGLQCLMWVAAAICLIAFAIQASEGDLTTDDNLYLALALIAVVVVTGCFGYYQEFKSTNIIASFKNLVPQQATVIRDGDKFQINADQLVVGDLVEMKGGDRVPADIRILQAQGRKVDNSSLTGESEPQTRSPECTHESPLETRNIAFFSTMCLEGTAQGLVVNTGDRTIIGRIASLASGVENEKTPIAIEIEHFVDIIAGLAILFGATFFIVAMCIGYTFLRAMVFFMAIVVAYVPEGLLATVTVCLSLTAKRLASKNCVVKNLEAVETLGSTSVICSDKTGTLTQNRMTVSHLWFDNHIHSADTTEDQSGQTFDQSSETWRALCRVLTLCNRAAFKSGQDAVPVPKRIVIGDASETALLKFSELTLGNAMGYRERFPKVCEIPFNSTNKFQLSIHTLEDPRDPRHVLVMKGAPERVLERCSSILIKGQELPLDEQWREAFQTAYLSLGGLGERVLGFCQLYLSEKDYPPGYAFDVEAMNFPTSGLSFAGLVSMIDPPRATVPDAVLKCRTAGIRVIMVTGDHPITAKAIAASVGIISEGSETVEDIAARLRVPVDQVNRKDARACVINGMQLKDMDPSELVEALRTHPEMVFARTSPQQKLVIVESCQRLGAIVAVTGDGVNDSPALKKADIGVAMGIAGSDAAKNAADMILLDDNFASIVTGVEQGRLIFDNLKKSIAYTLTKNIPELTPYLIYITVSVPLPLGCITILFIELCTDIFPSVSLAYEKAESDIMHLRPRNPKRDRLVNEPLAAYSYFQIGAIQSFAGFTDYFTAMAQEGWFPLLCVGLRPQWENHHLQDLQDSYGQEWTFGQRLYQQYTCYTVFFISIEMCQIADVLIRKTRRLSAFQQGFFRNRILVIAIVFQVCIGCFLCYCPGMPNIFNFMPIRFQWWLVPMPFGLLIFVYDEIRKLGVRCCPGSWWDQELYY
# Sequence (P18434 whole entry partner): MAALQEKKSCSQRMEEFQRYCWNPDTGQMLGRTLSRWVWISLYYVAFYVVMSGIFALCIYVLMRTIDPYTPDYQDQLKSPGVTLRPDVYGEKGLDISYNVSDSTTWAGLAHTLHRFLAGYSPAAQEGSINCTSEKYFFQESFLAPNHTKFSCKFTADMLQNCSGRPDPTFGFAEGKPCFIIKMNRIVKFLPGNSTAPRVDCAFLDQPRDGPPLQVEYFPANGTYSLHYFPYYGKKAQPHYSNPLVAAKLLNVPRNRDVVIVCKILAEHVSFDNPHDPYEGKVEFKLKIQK
# experiment summary: Proton potassium-adenosine triphosphatase (H+,K+-ATPase) inhibitory activity test
# condition label: swine gastric mucous membrane microsomal fraction, pH 6.5, 37° C., 10 mmol/L potassium chloride
pIC50: −log10 of the molar value. Where a name gives a salt, the structure may show the parent alone.
measurement label: pIC50

1. CNCc1cc(S(=O)(=O)c2cccnc2)n(-c2cccc(F)c2Cl)n1 [Example 113, fumarate] ... 6.74
2. CNCc1nc(-c2cccnc2F)c(S(=O)(=O)c2cccnc2)s1 ... 6.51
3. CNCc1nc(-c2ccccc2F)c(S(=O)(=O)c2cccnc2)s1 [Example 56, fumarate] ... 6.62

1. CNCc1cn(S(=O)(=O)c2ccccc2)c(-c2ccccc2F)n1 [Example 67, fumarate]
2. CNCc1cc(-c2cccnc2F)c(S(=O)(=O)c2cccnc2)s1
3. CNCc1cc(S(=O)(=O)c2cccnc2)n(-c2ccccc2Cl)n1
4. CNCc1nc(-c2ccccc2F)c(S(=O)(=O)c2cccc(OC)c2)s1 [Example 13, hydrochloride]
(Q) Kindly order the items shown according to pIC50, from the highest value down. Please write the labels in the order that was asked for.
(A) 1, 4, 3, 2
